Tested on: NCI-H322M lung
protocol-text: NCI-60 one-dose screen, 48 h
experimental-conditions: 10 µM unless noted
This is part of a sample that, as a whole, favours compounds with a hit. Of some 83,000 tested, about 20% had one in any assay. Active and inactive are the calls of the source. The calls were made as follows: active = growth percent below 10; inactive = the rest.
Classes used: 1 (active), -1 (inactive)

compound	tested-target	category
COc1cc(-c2nc3ccccc3[nH]2)ccc1OCC(=O)N=Nc1c(O)[nH]c2ccc(Cl)cc12	NCI-H322M lung	1
CNC(=O)c1cc(Oc2ccc(NC(=O)Nc3ccc(Cl)c(OC(F)(F)F)c3)c(F)c2)ccn1	NCI-H322M lung	-1
CSc1ccc(-c2n[nH]nc2-c2cc3ccccc3s2)cc1	NCI-H322M lung	-1
CC(O)CN(CC(C)O)c1ccc2c(c1)Cc1cc([N+](=O)[O-])ccc1-2 (stereo unspecified)	NCI-H322M lung	-1
C=C1c2nc3ccccc3n2C=C(c2cccc(Cl)c2)N1Cc1ccc(OC)cc1	NCI-H322M lung	-1
Cc1nn(-c2cc(=O)[nH]c3ccc(Cl)cc23)c(N)c1C#N	NCI-H322M lung	-1
Cc1nn(-c2ccc(F)cc2)c2ncnc(Oc3ccc(NC(=O)Nc4ccc(Cl)c(C(F)(F)F)c4)cc3)c12	NCI-H322M lung	-1
COc1cccc(-c2nn(C(C)(C)C)cc2-c2ccnc(NCCCNS(=O)(=O)c3cccc4ccccc34)c2)c1	NCI-H322M lung	-1
Cc1cc(NS(=O)(=O)c2ccc(-c3cnc(C4CC4)o3)cc2)ccc1Cl	NCI-H322M lung	-1
Cc1[nH]c(-c2ccc3cc[nH]c3c2)c2c1C(=O)CCCC2	NCI-H322M lung	-1
O=[N+]([O-])c1ccccc1/C=N\NC(=S)N/N=C/c1ccccc1[N+](=O)[O-]	NCI-H322M lung	-1
CSc1nc(-c2cccc(NC(=O)CCl)c2)c(C#N)c(=O)n1C	NCI-H322M lung	-1
O=C(N=Nc1c(O)[nH]c2ccccc12)c1cc(-c2ccccc2)on1	NCI-H322M lung	-1
CN1C(=O)C2(SCC(C(=O)NCc3ccccc3)N2C(=O)C2CCCCC2)c2ccccc21 (stereo unspecified)	NCI-H322M lung	-1
CN(Cc1cc(Cl)cc(Cl)c1O)Cc1cc(Cl)cc(Cl)c1O	NCI-H322M lung	-1
C#Cc1cccc(NC(=O)c2ccccc2NC(=O)CCl)c1	NCI-H322M lung	-1
C=C1C(=O)O[C@H]2[C@H]1CC/C(C=Nc1ccc(C(F)(F)F)cc1N)=C\CC[C@@]1(C)O[C@@H]21	NCI-H322M lung	-1
O=Nc1c(O)c(Cl)cc2ccccc12	NCI-H322M lung	-1
O=C(Cc1ccc(/C=C/C(=O)c2ncc[nH]2)cc1)Nc1ccccc1	NCI-H322M lung	-1
CC(=O)c1nc2ccccc2n1CC(=O)c1cccc(Cl)c1	NCI-H322M lung	-1
O=S(=O)(Nc1ccc(NS(=O)(=O)c2ccccc2)c(Cl)c1)c1ccccc1	NCI-H322M lung	-1
